# assay explanation: Aqueous kinetic solubility assay (CAD)
# Format: physicochemical
# condition details: pH 7.4, aqueous buffer, kinetic from dmso stock, several values in a cell = replicates
measurement label: solubility at 1 h

>>> recorded_measurement("Nc1nccc(-c2c(-c3ccc(F)cc3)ncn2C2CCNCC2)n1")
"155 µM"

###

# assayed target: LCK (Homo sapiens, UniProt P06239)
# Sequence (P06239 whole entry): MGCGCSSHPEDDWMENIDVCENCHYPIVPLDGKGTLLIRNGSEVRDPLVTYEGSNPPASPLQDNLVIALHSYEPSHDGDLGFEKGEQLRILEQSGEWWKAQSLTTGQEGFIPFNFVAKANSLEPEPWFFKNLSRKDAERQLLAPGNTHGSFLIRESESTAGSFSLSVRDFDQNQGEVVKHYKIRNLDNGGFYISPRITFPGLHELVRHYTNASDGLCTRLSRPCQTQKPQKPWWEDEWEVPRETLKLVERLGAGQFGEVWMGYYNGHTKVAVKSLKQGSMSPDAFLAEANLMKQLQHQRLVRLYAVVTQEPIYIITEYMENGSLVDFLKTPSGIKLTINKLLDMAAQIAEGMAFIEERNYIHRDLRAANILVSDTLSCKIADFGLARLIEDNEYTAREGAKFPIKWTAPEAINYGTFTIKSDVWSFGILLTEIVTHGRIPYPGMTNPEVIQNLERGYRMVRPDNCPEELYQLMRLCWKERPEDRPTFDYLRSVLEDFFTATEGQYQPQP
pIC50: −log10 of the molar value.
Assign 1.0 whenever pIC50 does not fall below 6; assign 0.0 whenever it does.

>>> assigned_class("COc1ccc(-c2c(-c3cccc(C(=O)N4CCN(C)CC4)c3)oc3ncnc(N)c23)cc1")
1.0
>>> assigned_class("CC(C)(CN)c1cc(-c2ccc(Cl)c(O)c2)c(-c2ccncc2)o1")
1.0
>>> assigned_class("Cc1ccc(S(C)(=O)=O)cc1Nc1nccc(-c2sc(CC(N)=O)nc2-c2ccccc2)n1")
1.0
>>> assigned_class("Nc1ccc2c(-c3ccncc3)c(-c3ccc(Cl)c(O)c3)[nH]c2n1")
0.0
>>> assigned_class("CCn1c(-c2nonc2N)nc2c(-c3ccccc3)ncc(CN(C)C3CCN(C)CC3)c21")
0.0

###

# assay explanation: Aqueous kinetic solubility assay (CAD)
# Type: physicochemical
# condition details: phosphate buffered saline, pH 7.4, aqueous buffer, kinetic from dmso stock, several values in a cell = replicates
measurement label: solubility at 1 h (µM)

>>> recorded_measurement("O=C(c1cccc(OCc2cccnc2)c1)N1CCc2sccc2C1CN1CCCCC1 (centres unmarked) [Compound 14]")
168
>>> recorded_measurement("O=C(N[C@@H](CO)c1ccccc1)c1ccc2cncc(-c3cn[nH]c3)c2n1 [Compound 11]")
4
>>> recorded_measurement("COc1cccc(Nc2nc(-c3ccncc3)cc(N3CCN(C)CC3)n2)c1 [Compound 9]")
82
>>> recorded_measurement("Cc1ccc(S(C)(=O)=O)cc1Nc1nccc(-c2sc(CC(N)=O)nc2-c2ccccc2)n1 [Compound 3]")
138
>>> recorded_measurement("CNCCOc1cnc(-c2ccoc2C)c(-c2ccc3cnccc3c2)c1 [Compound 13]")
418
>>> recorded_measurement("CCn1cc(-c2ccncn2)c(-c2cccc(NS(=O)(=O)c3cc(F)ccc3F)c2)n1 [Compound 2]")
412
>>> recorded_measurement("CC(C)(CN)c1cc(-c2ccc(Cl)c(O)c2)c(-c2ccncc2)o1 [Compound 4]")
252
>>> recorded_measurement("COc1ccc(CCNC(=O)CSc2ncnc3[nH]ncc23)cc1OC [Compound 8]")
254
>>> recorded_measurement("CNS(=O)(=O)c1cccc(Nc2ccnc(Nc3cccc(S(=O)(=O)NC)c3)n2)c1 [Compound 6]")
180
>>> recorded_measurement("Nc1nc(Nc2cccc3cnccc23)nn1C(=O)C1CCCCC1 [Compound 16]")
69
>>> recorded_measurement("COc1ccc(-c2c(-c3cccc(C(=O)N4CCN(C)CC4)c3)oc3ncnc(N)c23)cc1 [Compound 7]")
180

###

# assayed target: TQ PfPKG (PfPKG_T618Q) (Plasmodium falciparum, UniProt Q8I719, T618Q)
# Construct: His6 (N)
# Sequence (Q8I719 whole entry T618Q): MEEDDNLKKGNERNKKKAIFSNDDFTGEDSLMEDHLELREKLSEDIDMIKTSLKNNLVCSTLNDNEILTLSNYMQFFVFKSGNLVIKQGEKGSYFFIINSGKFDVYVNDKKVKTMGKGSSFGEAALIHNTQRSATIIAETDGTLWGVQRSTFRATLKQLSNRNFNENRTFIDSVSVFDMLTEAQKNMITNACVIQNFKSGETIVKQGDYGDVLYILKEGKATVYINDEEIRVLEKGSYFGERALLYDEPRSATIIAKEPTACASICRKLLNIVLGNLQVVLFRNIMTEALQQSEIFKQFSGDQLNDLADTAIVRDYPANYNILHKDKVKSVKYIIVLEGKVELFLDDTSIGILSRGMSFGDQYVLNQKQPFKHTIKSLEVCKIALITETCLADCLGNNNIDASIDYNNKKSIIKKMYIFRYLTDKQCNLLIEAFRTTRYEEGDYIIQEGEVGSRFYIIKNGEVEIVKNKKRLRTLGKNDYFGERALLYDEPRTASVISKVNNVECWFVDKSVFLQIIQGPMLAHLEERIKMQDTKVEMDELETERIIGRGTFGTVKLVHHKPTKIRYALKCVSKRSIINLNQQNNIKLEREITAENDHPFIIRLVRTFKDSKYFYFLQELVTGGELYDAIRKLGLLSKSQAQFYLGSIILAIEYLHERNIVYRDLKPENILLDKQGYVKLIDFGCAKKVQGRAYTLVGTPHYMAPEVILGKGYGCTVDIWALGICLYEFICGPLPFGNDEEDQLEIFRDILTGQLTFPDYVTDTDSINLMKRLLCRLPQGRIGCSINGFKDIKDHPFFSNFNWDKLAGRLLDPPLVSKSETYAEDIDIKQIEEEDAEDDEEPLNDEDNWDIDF
# assay explanation: Kinase Glo enzymatic assay, gatekeeper mutant TQ PfPKG
pIC50: −log10 of the molar value.
Assign yes whenever pIC50 does not fall below 6; assign no whenever it does.

>>> assigned_class("Nc1nc(Nc2cccc3cnccc23)nn1C(=O)C1CCCCC1")
"no"
>>> assigned_class("COc1cccc(Nc2nc(-c3ccncc3)cc(N3CCN(C)CC3)n2)c1")
"no"
>>> assigned_class("CCn1c(-c2nonc2N)nc2c(-c3ccccc3)ncc(CN(C)C3CCN(C)CC3)c21")
"no"
>>> assigned_class("CNS(=O)(=O)c1cccc(Nc2ccnc(Nc3cccc(S(=O)(=O)NC)c3)n2)c1")
"yes"
>>> assigned_class("COc1ccc(-c2c(-c3cccc(C(=O)N4CCN(C)CC4)c3)oc3ncnc(N)c23)cc1")
"no"
>>> assigned_class("COc1cc(CS(C)(=O)=O)ccc1Nc1nc(Nc2cc(F)ccc2C(N)=O)c2cc[nH]c2n1")
"yes"
